The molecules listed here are annotated with their melting point.

{"givenSmiles": "Cc1cc2[nH]nnc2c(Br)c1C", "melting point": "255 to 262 °C"}
{"givenSmiles": "Cc1ccc2c(Cl)ccnc2c1NC(=O)c1c(Cl)cccc1Cl", "melting point": "202 to 205 °C"}
{"givenSmiles": "CCOc1nn(-c2ccc(C(F)(F)F)cc2)cc1CCCOc1ccccc1CC(=O)O", "melting point": "114 to 115 °C"}
{"givenSmiles": "Clc1ccc(Cl)c(CN2CCNc3ncc(-c4ccc(N5CCCC5)nc4)cc32)c1", "melting point": "> 200 °C"}
{"givenSmiles": "COc1ccc2nc(COc3cccc(OCc4cccc(C)c4C(=O)O)c3)ccc2c1", "melting point": "176 to 179 °C"}

* * *

# melting point values compiled below

{"givenSmiles": "CN1C(=O)CC[C@]2(C)c3ccc(Sc4ccc([N+](=O)[O-])cn4)cc3CC[C@@H]12", "melting point": "188 to 191 °C"}
{"givenSmiles": "COC(=O)c1ccc(OCC=C(C)CCC=C(C)C)cc1", "melting point": "30 to 33 °C"}
{"givenSmiles": "COc1ccc(C(=O)c2cc([N+](=O)[O-])ccc2N2CCC(C)CC2)cc1", "melting point": "119 °C"}
{"givenSmiles": "CN1CCC(c2nc(-c3ccccc3)c3ccccc3n2)CC1", "melting point": "83 to 86 °C"}
{"givenSmiles": "O=C(Nc1ccc(Oc2ccnc(N3CCC(O)CC3)n2)c2ccccc12)c1cc(F)cc(N2CCCCC2)c1", "melting point": "182 to 184 °C"}

* * *

The compounds listed here are annotated with their melting point.

{"compound": "COC(=O)c1cc(C)sc1NC(=O)Cc1ccccc1", "melting point": "107 to 109 °C"}
{"compound": "Fc1ccc(Cn2c(NC3CCN(CCN(Cc4ccccc4)Cc4ccccc4)CC3)nc3ccccc32)cc1", "melting point": "116 °C"}
{"compound": "Nc1c(C(=O)c2cccnc2N2CCOCC2)oc2ccc(Cl)cc12", "melting point": "95 to 97 °C"}
{"compound": "COC(=O)c1cc(=O)n2nc(COC(C)=O)nc2[nH]1", "melting point": "260 °C"}
{"compound": "COc1cc(OCCn2cccc2)ccc1/C=C/c1cc(/C=C/c2ccc3cc[nH]c3c2)n[nH]1", "melting point": "102 to 110 °C"}
{"compound": "CCCCc1nn(Cc2ccc(C(=O)O)cc2)c2ccccc2c1=O", "melting point": "220 °C"}
{"compound": "CCCC1CC(O)N(C(C)=O)C1(C(=O)OCC)C(=O)OCC (centres undefined)", "melting point": "105 to 106 °C"}
{"compound": "CS(=O)(=O)c1ccc(-c2cnn(-c3cccc(Cl)c3)c(=O)c2Oc2ccc(F)cc2)cc1", "melting point": "211 to 213 °C"}
{"compound": "COc1ccccc1N1CCN(C(=O)Cc2ccccc2Br)CC1", "melting point": "95 to 97 °C"}
{"compound": "CCOC(=O)n1cc(C#N)c(-c2cccc(Cl)c2F)c1", "melting point": "149 °C"}
{"compound": "Cc1ccc(OC2CCN(C(=O)C(=O)Nc3ccc4[nH]c(=O)oc4c3)CC2)cc1", "melting point": "203 °C"}
{"compound": "CCOC(=O)C1CN(c2cc3ccccc3c(=O)[nH]2)CCN1C (centres undefined)", "melting point": "105 to 109 °C"}
{"compound": "CCS(=O)(=O)c1cc(OC)c(OC)c(C(=O)O)c1", "melting point": "138 to 139 °C"}
{"compound": "O=c1[nH]c2ccc(-c3cc(=O)c4ccccc4o3)cc2o1", "melting point": "348 °C"}
{"compound": "Nc1c(-c2nc(-c3ccco3)n[nH]2)nnn1Cc1ccc(F)cc1", "melting point": "200 to 202 °C"}
{"compound": "N#Cc1cc(C2=NOC(c3cc(Cl)cc(Cl)c3)(C(F)(F)F)C2)ccc1-n1cncn1 (centres undefined)", "melting point": "118 to 125 °C"}
{"compound": "CCCCc1cccc(=O)n1Cc1ccc(-c2ccccc2-c2nnn[nH]2)cc1", "melting point": "105 °C"}
{"compound": "COC(=O)Cc1ccc(CNC(=O)C2Cc3ccccc3N2S(=O)(=O)c2ccc(-c3cccc(C(F)(F)F)c3)cc2)c(Cl)c1 (centres undefined)", "melting point": "124 to 126 °C"}
{"compound": "Cc1ccc(NC(=O)c2ccc(CN3CCOCC3)c(C(F)(F)F)c2)cc1-c1ccc2cnncc2c1", "melting point": "160 to 162 °C"}
{"compound": "Cc1cccn2cc(CN3CCN(c4ccc(Cl)cc4)CC3)nc12", "melting point": "102 to 104 °C"}
{"compound": "O=C(c1ccc(Oc2ccc(F)cc2)nc1)N1CCCNCC1", "melting point": "95.4 °C"}
{"compound": "CC(C)c1cccc(C(C)C)c1NC(=O)Nc1nnn(Cc2ccccc2)n1", "melting point": "180 to 181 °C"}
{"compound": "COc1ccccc1N1CCN(CCCNC(=O)c2cccc3c(=O)c(C)c(C4CC4)oc23)CC1", "melting point": "139 to 141 °C"}
{"compound": "N#CC1=C(NN)C(=O)NC1=O", "melting point": "> 350 °C"}
{"compound": "CC12CCC(O)CC1=CCC1C2CCC2(C)C(n3cccn3)=CCC12 (centres undefined)", "melting point": "197 to 199 °C"}
{"compound": "COC(=O)/C(=C\\O)c1ccccc1C", "melting point": "48 to 49 °C"}
{"compound": "CC1CC(=O)c2cccc(C#N)c21 (centres undefined)", "melting point": "109 to 111 °C"}
{"compound": "COc1ccc2c(Cl)ccnc2c1", "melting point": "86 to 88 °C"}
{"compound": "COc1cccc(C2(c3cccc(OC)c3)CC2C=CC(=O)NC(C)CCCc2ccncc2)c1 (single isomer, unassigned)", "melting point": "104 to 106 °C"}

* * *

{"compound": "CCOC(=O)c1c(NC=CC(=O)C(C)C)sc(-c2ccccc2)c1C", "melting point": "104 to 108 °C"}
{"compound": "CN(C)C(=O)C1CCCN(c2cc3ccccc3c(=O)[nH]2)C1 (stereo not drawn)", "melting point": "187 to 188 °C"}
{"compound": "COc1cc2c(cc1O)C(=O)CCC2", "melting point": "147 to 148 °C"}
{"compound": "CCNc1cc(NS(=O)(=O)c2ccc(N)cc2)nc(N2CCC2)n1", "melting point": "260 to 262 °C"}
{"compound": "Cc1nc(-c2ccc(C(F)(F)F)cc2)sc1CSc1ccc(OCC(=O)O)c2ccccc12", "melting point": "181 to 183 °C"}
{"compound": "COc1ccc2[nH]c(CCN(C)C)c(CSc3ccccc3)c2c1", "melting point": "85 to 88 °C"}
{"compound": "CCOC(=O)C(Oc1ccc(C(=O)CBr)cc1)C(=O)OCC", "melting point": "55 to 58 °C"}
{"compound": "Nc1scc2c1C(=O)c1ccc(Cl)cc1-2", "melting point": "201 to 202 °C"}
{"compound": "Cc1cc(-n2cncn2)c2c(Cl)ccc(C)c2n1", "melting point": "117 to 118 °C"}
{"compound": "CN(C)CCCNC(=O)N1C(=O)Cc2cc(Cl)ccc21", "melting point": "84 to 85 °C"}
{"compound": "Clc1ccc(C(Cl)Cl)cn1", "melting point": "60 °C"}
{"compound": "CC(C)C1Sc2ccccc2N(CC(=O)O)C1=S (stereo not drawn)", "melting point": "175 to 176 °C"}
{"compound": "COc1cccc(SC(CC(=O)c2ccccc2)c2cccc([N+](=O)[O-])c2)c1 (stereo not drawn)", "melting point": "105 °C"}
{"compound": "CC(=O)OCC(C)(Sc1cc2ccccc2[nH]1)c1ccccc1 (stereo not drawn)", "melting point": "105 to 106 °C"}
{"compound": "O=C1CN=C(c2ccccc2F)c2cc(Cl)ccc2N1", "melting point": "206 to 207 °C"}
{"compound": "Cc1ccccc1CC(Cc1ccccc1C)C(=O)O", "melting point": "94 to 96 °C"}
{"compound": "Cn1cc(-c2cccc(N3Cc4cc(C(C)(C)C)ccc4C3=O)c2CO)cc(Nc2ccc(N3CCNCC3=O)cn2)c1=O", "melting point": "218 to 220 °C"}
{"compound": "O=C1c2c(Br)cccc2-n2cnc(-c3noc(CCl)n3)c2[C@@H]2CCN12", "melting point": "210 to 211 °C"}
{"compound": "CCOC(=O)C(Cc1cn(C)c2c(Cl)cccc12)(NC=O)C(=O)OCC", "melting point": "83 to 87 °C"}
{"compound": "O=C1NCCn2c1cc1c2CCCC1", "melting point": "207 to 209 °C"}
{"compound": "COc1c(C(C)C)cc(S(N)(=O)=O)c(C)c1C(=O)NCC1CCCN1C1CCCC1 (stereo not drawn)", "melting point": "196 °C"}
{"compound": "CC(=O)Nc1ccc2c(c1)cc(C(=O)O)n2Cc1ccc(Cl)c(Cl)c1", "melting point": "245 to 246 °C"}
{"compound": "Cc1c(C(F)(F)C(F)(F)F)oc2c(Br)cccc12", "melting point": "65 °C"}
{"compound": "COc1ccc(N(C)C(C)=O)cc1C", "melting point": "65 to 66 °C"}
{"compound": "O=c1c2ccc(Cl)cc2n(Cc2ccccc2)n2cccc12", "melting point": "163 to 165 °C"}
{"compound": "CNC(=O)c1ccc(N2CCN(Cc3cc4c(c(OC)c3)OCC(=O)N4)CC2)c(C)c1", "melting point": "234 to 235 °C"}
{"compound": "CCN1CCN(Cn2nc(-c3ccsc3)c3c2-c2ccccc2C3)CC1", "melting point": "111 to 112 °C"}
{"compound": "Cc1ncn(Nc2cccc(Cl)c2)c1-c1cccc(Br)c1", "melting point": "164 °C"}
{"compound": "O=C(CBr)OCCCCOC(=O)CBr", "melting point": "62 to 62.5 °C"}
{"compound": "CCCCN1C(=O)CCC(C)(C)c2cc(C(=O)Nc3ccc(C(=O)O)cc3)ccc21", "melting point": "269 °C"}
{"compound": "COc1ccc(CNC(=O)c2ccc3n2Cc2ccccc2N(C(=O)c2ccc(-c4ccccc4C)c(C)c2)C3)cc1", "melting point": "127 to 128 °C"}
{"compound": "Cc1nn2c3c1c(=O)[nH]c(=O)n3CC=C2c1cc(Cl)ccc1Cl", "melting point": "205 to 209 °C"}
{"compound": "CCc1c(O)c(C(C)=O)c(C)c2c1OC(C)(C)CC2C (stereo not drawn)", "melting point": "70 to 71 °C"}

Where do the numbers come from? From a melting point compilation (Tetko et al.; mined from patent text by program, amines drawn as free bases though some values may be those of a salt).
